# assayed_system: T1, IGF-IIE (amino acids 1-104 of pro-IGF-II) (human, UniProt P01344 25-128)
# T1 construct: Biotinylated in the selections; also called IGF-IIE (104aa)
# T1 sequence (P01344 25-128): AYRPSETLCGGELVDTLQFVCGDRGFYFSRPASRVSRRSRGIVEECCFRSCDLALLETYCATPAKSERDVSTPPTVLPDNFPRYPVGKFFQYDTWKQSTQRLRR
# protocol_text: SPR (Flexchip), Fab, 2nd of duplicate
// values below are reported pKd
Would you please state pKd, meaning minus log10 of the concentration in mol/L, as a bare number?

# binder, pKd
rows = [
    ("M0063-F02 Fab (Fab, V domains shown, soluble Fab (sFab); also called R0032-A01) VH: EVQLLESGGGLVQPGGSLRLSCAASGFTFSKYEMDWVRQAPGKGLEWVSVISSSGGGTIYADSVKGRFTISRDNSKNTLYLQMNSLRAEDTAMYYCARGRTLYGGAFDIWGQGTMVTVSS VL: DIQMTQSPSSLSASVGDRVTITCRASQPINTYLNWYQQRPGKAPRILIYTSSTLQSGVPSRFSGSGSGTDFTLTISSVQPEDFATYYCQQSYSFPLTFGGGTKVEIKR", 9.70),
    ("M0072-G06 Fab (Fab, V domains shown, soluble Fab (sFab); also called R0032-C05) VH: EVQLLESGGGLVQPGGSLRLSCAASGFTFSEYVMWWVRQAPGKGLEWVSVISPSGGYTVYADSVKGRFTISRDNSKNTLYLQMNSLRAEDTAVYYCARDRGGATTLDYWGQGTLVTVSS VL: DIQMTQSPSTLSASVGDRVTITCRASQTISSWLAWYQQKPGKAPKLMIYKAASLGSEVPSRFSGSGSGTEFTLTISSLQPEDFSTYYCQQYKTYPVTFGQGTRLEIKR", 9.05),
    ("M0070-H08 Fab (Fab, V domains shown, soluble Fab (sFab); also called R0032-A07) VH: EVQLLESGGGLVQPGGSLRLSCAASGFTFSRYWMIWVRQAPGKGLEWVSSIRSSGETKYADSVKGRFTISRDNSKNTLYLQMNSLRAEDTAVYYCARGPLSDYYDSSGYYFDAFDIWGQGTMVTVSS VL: DIQMTQSPSSLSASAGDRVTITCRASQSISSYLNWYQQKPGKAPNLLIYTTSNLQGGVPSRFSGSGSGTDFTLTISSLQPEDFATYYCQQGYSFPLTFGGGTKVEIKR", 9.41),
    ("M0064-E04 Fab (Fab, V domains shown, soluble Fab (sFab); also called R0032-A03; 566A-M0064-E04) VH: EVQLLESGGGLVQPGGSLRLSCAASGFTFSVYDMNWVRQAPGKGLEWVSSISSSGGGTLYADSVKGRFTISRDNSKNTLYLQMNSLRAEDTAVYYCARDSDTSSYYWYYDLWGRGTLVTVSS VL: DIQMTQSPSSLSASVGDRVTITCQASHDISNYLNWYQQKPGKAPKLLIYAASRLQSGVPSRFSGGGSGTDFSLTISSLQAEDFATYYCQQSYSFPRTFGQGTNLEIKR", 9.92),
]

Moving on to the next binder.
Task: What value of pKd has been reported for the following binder? M0064-F02 Fab (Fab, V domains shown, soluble Fab (sFab); also the Fab crystallised with IGF-II; also called R0032-A11; 566A-M0064-F02) VH: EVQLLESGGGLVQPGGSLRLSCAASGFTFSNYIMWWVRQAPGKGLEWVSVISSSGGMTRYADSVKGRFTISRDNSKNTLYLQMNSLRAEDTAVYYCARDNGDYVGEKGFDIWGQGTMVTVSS VL: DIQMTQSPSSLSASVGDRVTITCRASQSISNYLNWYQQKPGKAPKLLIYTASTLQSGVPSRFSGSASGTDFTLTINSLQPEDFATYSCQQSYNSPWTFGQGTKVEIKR
Result: 9.54
